Values were extracted from paper PMC3859497.

Test system: Sitophilus oryzae sensitive weevil strain WAA42
Experiment: Toxicity assay on weevils, sensitive strain WAA42 (survival analysis on food pellets)
Assay type: in vivo
Conditions: adult S. oryzae, sensitive strain WAA42, fed food pellets (wheat flour and water) incorporating peptide at 400 µg.g−1; days +/− SEM; LT50 calculated with SIMFIT
No end group written: not given here.
# TL50 WAA42 per record follows

substance	TL50 WAA42
ASCNGVCSPFEMoxPPCGSSACRCIPVGLLIGYCRNPSG (bicyclic or more) [Isoform 1, pea PA1b isoform (GenBank AJ574795) expressed in N. benthamiana with the PA1-cassette]	9.2+−0.9 days
ASCNGVCSPFEMoxPPCGTSACRCIPVGLFIGYCRNPSG (bicyclic or more) [Isoform 2.1, pea PA1b isoform 2 (GenBank AJ574794), oxidized Met form, expressed in tobacco]	9.5+−0.7 days
ASCNGVCSPFEMPPCGTSACRCIPVGLFIGYCRNPSG (also: bicyclic or more (positions not given here)) [Isoform 2.2, pea PA1b isoform 2 (GenBank AJ574794), non-oxidized Met form, expressed in tobacco]	8.9+−0.6 days
ASCNGVCSPFEMoxPPCGTSACRCIPVGLVIGYCRNPSG (bicyclic or more) [Isoform 6, pea PA1b isoform (GenBank AJ574793) expressed in tobacco]	8.9+−0.7 days
ASCNGVCSPFEMoxPPCGTSACRCIPVGLVVGYCRNPSG (bicyclic or more) [Isoform 5, pea PA1b isoform (GenBank M13709) expressed in tobacco]	9.35+−0.7 days
